- targetUnderTest: AR (gene 367)
- measurementDescription: ACEA_AR_antagonist_80hr: ACEA Biosciences xCELLigence Real-Time Cell Analysis on Androgen Receptor Antagonism for Proliferation (AID 2283787);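 also: 22Rv1 human prostate cancer cells with growth followed by electrical impedance; hits lower the impedance growth signal relative to DMSO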
Results filed as inconclusive are left out. Active and inactive are the calls of the source. The calls were made as follows: active = hit-call score of the fitted dose curve at least 0.9, where 1 is the maximum; inconclusive = response in the unintended direction; inactive = score below 0.9.
propertyName: AC50

The cases that follow already have their AC50 on record.
{"molecule": "COc1cc([N+](=O)[O-])ccc1N", "AC50": "2.99 µM (active)"}
{"molecule": "CCCCCCCCCC=CCC1CC(=O)OC1=O (stereo not drawn)", "AC50": "inactive"}
{"molecule": "CN(Cc1cnc2nc(N)nc(N)c2n1)c1ccc(C(=O)N[C@@H](CCC(=O)O)C(=O)O)cc1", "AC50": "0.39 µM (active)"}
{"molecule": "NC(=NCCCCCCN=C(N)/N=C(\\N)Nc1ccc(Cl)cc1)/N=C(\\N)Nc1ccc(Cl)cc1", "AC50": "9.25 µM (active)"}
{"molecule": "CCCCCCc1ccc(N)cc1", "AC50": "inactive"}
{"molecule": "CCCCc1ccc2ccccc2c1S(=O)(=O)O", "AC50": "inactive"}
{"molecule": "Cc1cc(C(=C2C=CC(=Nc3ccc(S(=O)(=O)O)cc3)C=C2)c2ccc(Nc3ccc(S(=O)(=O)O)cc3)cc2)cc(S(=O)(=O)O)c1N", "AC50": "inactive"}

Can you look up the measured AC50 of O=C(c1ccccc1)c1ccccc1 for me?
inactive

----------
- Read-out: Collagen III, COL3A1 (gene 1281)
- measurementDescription: BSK_hDFCGF_CollagenIII: BioMAP Diversity Plus: hDFCGF Assay for Collagen III Biomarker Activity (AID 2283056)
- conditionParameters: primary human foreskin fibroblasts; actives raise or lower the signal
The source made the active and inactive calls. How the source made its calls: active means hit-call score of the fitted dose curve at least 0.9, where 1 is the maximum; inactive means score below 0.9.
propertyName: outcome

The cases that follow already have their outcome on record.
{"compound": "CCCCC(CC)C(=O)O (stereo unspecified)", "outcome": "inactive"}
{"compound": "CCCCCCCCCCCCOS(=O)(=O)O", "outcome": "inactive"}
{"compound": "CN(C)CCOC(c1ccccc1)c1ccccc1", "outcome": "inactive"}
{"compound": "O=C(c1ccccc1)c1ccccc1", "outcome": "inactive"}
{"compound": "C=CC(C)(CCC=C(C)C)OC(C)=O (stereo unspecified)", "outcome": "inactive"}

Can you look up the measured outcome of COC1=CC(=O)C[C@@H](C)[C@]12Oc1c(Cl)c(OC)cc(OC)c1C2=O for me?
inactive

----------
- targetUnderTest: Bile acid receptor (Homo sapiens) (UniProt Q96RI1)
- Sequence (Q96RI1 whole entry, looked up): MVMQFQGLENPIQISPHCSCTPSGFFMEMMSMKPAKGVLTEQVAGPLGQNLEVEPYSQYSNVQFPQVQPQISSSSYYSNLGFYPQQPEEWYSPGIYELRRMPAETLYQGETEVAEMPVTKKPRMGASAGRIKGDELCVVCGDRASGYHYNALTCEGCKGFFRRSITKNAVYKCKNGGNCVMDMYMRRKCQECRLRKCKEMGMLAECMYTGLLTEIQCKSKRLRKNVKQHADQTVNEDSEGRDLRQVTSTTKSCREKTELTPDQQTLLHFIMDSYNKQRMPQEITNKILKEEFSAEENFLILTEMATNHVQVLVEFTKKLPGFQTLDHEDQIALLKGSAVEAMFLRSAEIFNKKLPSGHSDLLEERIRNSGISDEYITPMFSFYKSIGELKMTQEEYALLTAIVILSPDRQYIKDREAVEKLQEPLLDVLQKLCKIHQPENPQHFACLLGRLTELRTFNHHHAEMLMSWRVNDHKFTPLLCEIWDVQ
- measurementDescription: OT_FXR_FXRSRC1_1440: Odyssey Thera (OT) 24-hour HEK293T Protein-Complementation Assay for Farnesoid X receptor/SRC-1 Co-activator (AID 2283384)
Records with an inconclusive call do not appear. Activity calls are given as the source filed them. How the source made its calls: active means hit-call score of the fitted dose curve at least 0.9, where 1 is the maximum; inconclusive means response in the unintended direction; inactive means score below 0.9.
propertyName: AC50

The cases that follow already have their AC50 on record.
{"compound": "O=C(CCCN1CCC(O)(c2ccc(Cl)cc2)CC1)c1ccc(F)cc1", "AC50": "inactive"}
{"compound": "COc1cc([N+](=O)[O-])ccc1N", "AC50": "28 µM (active)"}
{"compound": "C=CC(C)(CCC=C(C)C)OC(C)=O (configuration not stated)", "AC50": "inactive"}
{"compound": "CCCCCCC(C)(C)C(=O)O", "AC50": "inactive"}

Can you look up the measured AC50 of CCCCCC(C)OC(=O)COc1ccc(Cl)c2cccnc12 (configuration not stated) for me?
22.7 µM (active)

Can you look up the measured AC50 of CCCCCCCCCCCCOC(=O)c1cc(O)c(O)c(O)c1 for me?
inactive

Can you look up the measured AC50 of Cc1cc(C(=C2C=CC(=Nc3ccc(S(=O)(=O)O)cc3)C=C2)c2ccc(Nc3ccc(S(=O)(=O)O)cc3)cc2)cc(S(=O)(=O)O)c1N for me?
inactive

Can you look up the measured AC50 of O=S(=O)(O)c1ccccc1 for me?
inactive

Can you look up the measured AC50 of CCCCCCCCCC=CCC1CC(=O)OC1=O (configuration not stated) for me?
inactive

Can you look up the measured AC50 of CCCCC=O for me?
inactive

Can you look up the measured AC50 of CCCCc1oc2ccccc2c1C(=O)c1cc(I)c(OCCN(CC)CC)c(I)c1 for me?
8.87 µM (active)

Can you look up the measured AC50 of NCc1cccc(CN)c1 for me?
inactive

----------
- measurementDescription: BSK_4H_SRB: Viability Assessment in the BioMAP Diversity Plus: 4H Assay (AID 2283027);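 also: cells exposed to compound for 24 h before staining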
- conditionParameters: primary human endothelial cells (HUVEC)
The source made the active and inactive calls. How the source made its calls: active means hit-call score of the fitted dose curve at least 0.9, where 1 is the maximum; inactive means score below 0.9.
The categories you may choose from are Yes for active, No for inactive

Use the examples below as a reference point.
{"molecule": "CS(=O)(=O)c1ccc([C@@H](CC2CCCC2)C(=O)Nc2cnccn2)cc1Cl", "classLabel": "Yes"}
{"molecule": "CCCCC=O", "classLabel": "No"}

What did this assay record as the result for Oc1cc2ccccc2cc1O ?
No

What did this assay record as the result for CN(CCO)S(=O)(=O)C(F)(F)C(F)(F)C(F)(F)C(F)(F)C(F)(F)C(F)(F)C(F)(F)C(F)(F)F ?
No

----------
- targetUnderTest: Hypoxia-inducible factor 1-alpha (Homo sapiens) (UniProt Q16665)
- Sequence (Q16665 whole entry, looked up): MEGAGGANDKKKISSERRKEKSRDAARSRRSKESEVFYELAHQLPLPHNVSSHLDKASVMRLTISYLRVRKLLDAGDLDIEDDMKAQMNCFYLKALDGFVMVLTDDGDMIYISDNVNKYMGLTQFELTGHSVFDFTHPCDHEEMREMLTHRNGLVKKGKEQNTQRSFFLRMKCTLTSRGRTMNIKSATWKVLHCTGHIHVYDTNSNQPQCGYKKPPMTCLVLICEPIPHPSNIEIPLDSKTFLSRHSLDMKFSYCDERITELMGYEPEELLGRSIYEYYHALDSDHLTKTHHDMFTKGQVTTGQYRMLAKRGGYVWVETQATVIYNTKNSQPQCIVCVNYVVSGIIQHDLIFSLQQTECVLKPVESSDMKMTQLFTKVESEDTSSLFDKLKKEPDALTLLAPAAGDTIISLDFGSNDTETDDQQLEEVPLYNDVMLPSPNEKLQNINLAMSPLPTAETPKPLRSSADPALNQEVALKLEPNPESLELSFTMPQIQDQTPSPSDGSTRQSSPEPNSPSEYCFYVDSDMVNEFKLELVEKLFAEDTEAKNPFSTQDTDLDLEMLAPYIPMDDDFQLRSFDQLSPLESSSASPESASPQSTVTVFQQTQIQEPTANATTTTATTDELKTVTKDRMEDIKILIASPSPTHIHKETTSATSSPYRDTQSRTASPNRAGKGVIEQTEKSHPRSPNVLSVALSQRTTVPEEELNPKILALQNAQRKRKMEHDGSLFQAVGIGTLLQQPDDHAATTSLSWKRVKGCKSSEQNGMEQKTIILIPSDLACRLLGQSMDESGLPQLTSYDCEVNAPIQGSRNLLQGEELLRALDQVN
- measurementDescription: ATG_HIF1a_CIS: Attagene CIS-FACTORIAL HepG2 Assay for human Hypoxia Inducible Factor 1 (HIF1A) (AID 2282951)
- conditionParameters: HepG2 Attagene cis-factorial HIF1a reporter transcription; actives raise or lower the signal
Calls of active or inactive are those of the source. The calls were made as follows: active = hit-call score of the fitted dose curve at least 0.9, where 1 is the maximum; inactive = score below 0.9.
propertyName: AC50

The cases that follow already have their AC50 on record.
{"compound": "C=CC(=O)OCCC(F)(F)C(F)(F)C(F)(F)C(F)(F)C(F)(F)C(F)(F)C(F)(F)C(F)(F)F", "testValue": "inactive"}
{"compound": "Cn1sccc1=O", "testValue": "inactive"}
{"compound": "COC(=O)C(F)(F)C(F)(F)C(F)(F)F", "testValue": "inactive"}
{"compound": "CCCCC(CC)C(=O)O (stereo not given)", "testValue": "inactive"}
{"compound": "FC1(F)C=CC(F)(F)C1(F)F", "testValue": "inactive"}

Can you look up the measured AC50 of O=C(O)CCC(F)(F)C(F)(F)C(F)(F)C(F)(F)C(F)(F)C(F)(F)F for me?
inactive

Can you look up the measured AC50 of C[C@]12CC[C@@H]3c4ccc(O)cc4CC[C@H]3[C@@H]1CC[C@@H]2OC(=O)CCC1CCCC1 for me?
inactive

Can you look up the measured AC50 of COCC1CCC(CO)CC1 (stereo not given) for me?
inactive

Can you look up the measured AC50 of CCCCN(C)C for me?
inactive

Can you look up the measured AC50 of Clc1ccc2c(Cl)ccnc2c1 for me?
inactive

Can you look up the measured AC50 of CC(=O)Nc1ccc(S(N)(=O)=O)cc1 for me?
inactive

Can you look up the measured AC50 of O=C1c2ccccc2C(=O)c2c(O)c(O)cc(O)c21 for me?
inactive

Can you look up the measured AC50 of FC(F)(F)N1C(F)(F)C(F)(F)OC(F)(F)C1(F)F for me?
inactive

Can you look up the measured AC50 of Cc1cncc(C)c1 for me?
inactive

Can you look up the measured AC50 of c1ccc2c(c1)CCC2 for me?
36.5 µM (active)

Can you look up the measured AC50 of O=C(F)C(F)(F)C(F)(F)C(F)(F)C(=O)F for me?
inactive

Can you look up the measured AC50 of CCOC=O for me?
inactive

Can you look up the measured AC50 of CCCCCCCCCCCC for me?
inactive

Can you look up the measured AC50 of NS(=O)(=O)O for me?
inactive

Can you look up the measured AC50 of c1ccc(CNc2ncnc3c2ncn3C2CCCCO2)cc1 (stereo not given) for me?
inactive

Can you look up the measured AC50 of CC1CNCC(C)O1 (stereo not given) for me?
inactive

Can you look up the measured AC50 of CCCCCCCCC(C)=O for me?
inactive

Can you look up the measured AC50 of CCCCCCCCCCCCOC(=O)c1cc(O)c(O)c(O)c1 for me?
6.75 µM (active)

Can you look up the measured AC50 of OCC1CCC(CO)CC1 (stereo not given) for me?
inactive

Can you look up the measured AC50 of CCCCc1oc2ccccc2c1C(=O)c1cc(I)c(OCCN(CC)CC)c(I)c1 for me?
7.78 µM (active)

Can you look up the measured AC50 of O=C1C=CC(=O)N1c1cccc(N2C(=O)C=CC2=O)c1 for me?
inactive

----------
- targetUnderTest: human Retinoic Acid Receptor gamma (RARg), RARG (gene 5916) (UniProt P13631)
- Sequence (P13631 whole entry, looked up): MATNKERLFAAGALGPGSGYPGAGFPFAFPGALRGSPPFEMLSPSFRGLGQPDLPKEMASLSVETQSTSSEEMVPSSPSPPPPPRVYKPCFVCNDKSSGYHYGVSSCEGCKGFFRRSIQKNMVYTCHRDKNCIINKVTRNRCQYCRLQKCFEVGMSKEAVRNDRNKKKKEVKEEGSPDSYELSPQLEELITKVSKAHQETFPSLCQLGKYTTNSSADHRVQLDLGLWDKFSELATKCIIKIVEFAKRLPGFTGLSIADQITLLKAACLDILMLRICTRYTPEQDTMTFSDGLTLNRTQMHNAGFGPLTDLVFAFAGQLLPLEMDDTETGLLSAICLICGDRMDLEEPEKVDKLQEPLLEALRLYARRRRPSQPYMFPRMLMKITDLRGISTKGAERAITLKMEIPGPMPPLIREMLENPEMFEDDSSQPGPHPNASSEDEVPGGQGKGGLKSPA
- measurementDescription: ATG_RARg_TRANS: Attagene TRANS-FACTORIAL HepG2 Assay for human Retinoic Acid Receptor gamma (RARg) (AID 2283009);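 as to AC50: AC50 is for reporter induction above DMSO meaning RARg activation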
Results filed as inconclusive are left out. The source made the active and inactive calls. How the source made its calls: active means hit-call score of the fitted dose curve at least 0.9, where 1 is the maximum; inconclusive means response in the unintended direction; inactive means score below 0.9.
propertyName: AC50

The cases that follow already have their AC50 on record.
{"molecule": "CCCCCC(C)OC(=O)COc1ccc(Cl)c2cccnc12 (stereo unspecified)", "targetUnderTest": "human Retinoic Acid Receptor gamma (RARg), RARG (gene 5916) (UniProt P13631)", "AC50": "inactive"}
{"molecule": "Cc1cc(Cc2cc(C)cc(C(C)(C)C)c2O)c(O)c(C(C)(C)C)c1", "targetUnderTest": "human Retinoic Acid Receptor gamma (RARg), RARG (gene 5916) (UniProt P13631)", "AC50": "inactive"}
{"molecule": "FC(F)(F)C1(F)C(F)(F)C(F)(F)C(F)(F)C(F)(C(F)(F)F)C1(F)F (stereo unspecified)", "targetUnderTest": "human Retinoic Acid Receptor gamma (RARg), RARG (gene 5916) (UniProt P13631)", "AC50": "inactive"}
{"molecule": "CC[N+](CC)(CC)Cc1ccccc1", "targetUnderTest": "human Retinoic Acid Receptor gamma (RARg), RARG (gene 5916) (UniProt P13631)", "AC50": "inactive"}
{"molecule": "CCCCCCCCCCCC[N+](C)(C)CCCCCCCCCCCC", "targetUnderTest": "human Retinoic Acid Receptor gamma (RARg), RARG (gene 5916) (UniProt P13631)", "AC50": "27.3 µM (active)"}

Pending molecule:
Can you look up the measured AC50 of O=C(NCc1ncc(C(F)(F)F)cc1Cl)c1c(Cl)cccc1Cl for me?
inactive

These measurements were taken from PubChem BioAssay (EPA / NIEHS).
